Source of measurements: BindingDB's records for doi:10.7270/Q20G3HMV

The reader will find reported pIC50 values listed item by item below.
target_system: UniProt:Q6QLK5
Sequence (Q6QLK5 whole entry, the tested form may be a part): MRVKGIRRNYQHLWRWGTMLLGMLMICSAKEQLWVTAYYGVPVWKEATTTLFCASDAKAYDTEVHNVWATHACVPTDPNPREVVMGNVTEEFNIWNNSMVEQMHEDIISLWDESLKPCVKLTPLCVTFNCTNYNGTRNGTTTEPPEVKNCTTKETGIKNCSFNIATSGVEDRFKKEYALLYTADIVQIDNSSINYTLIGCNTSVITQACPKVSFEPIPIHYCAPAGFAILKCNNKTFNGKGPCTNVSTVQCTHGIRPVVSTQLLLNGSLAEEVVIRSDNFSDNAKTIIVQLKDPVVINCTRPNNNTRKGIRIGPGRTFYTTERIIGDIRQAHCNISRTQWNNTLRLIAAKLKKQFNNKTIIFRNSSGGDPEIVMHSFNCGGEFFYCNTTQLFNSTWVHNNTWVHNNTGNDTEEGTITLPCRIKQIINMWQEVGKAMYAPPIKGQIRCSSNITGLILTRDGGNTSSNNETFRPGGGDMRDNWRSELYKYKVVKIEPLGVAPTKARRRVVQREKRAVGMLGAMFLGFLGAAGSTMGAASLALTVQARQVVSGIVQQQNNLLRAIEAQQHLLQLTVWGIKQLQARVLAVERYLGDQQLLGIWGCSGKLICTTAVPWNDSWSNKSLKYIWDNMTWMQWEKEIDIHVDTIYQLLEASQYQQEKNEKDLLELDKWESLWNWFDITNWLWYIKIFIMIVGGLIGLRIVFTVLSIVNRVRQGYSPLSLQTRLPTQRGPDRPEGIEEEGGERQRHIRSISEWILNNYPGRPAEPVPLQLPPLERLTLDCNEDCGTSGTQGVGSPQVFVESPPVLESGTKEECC
assay_summary: HIV Env-driven cell-cell fusion inhibition, SAR follow-up, luminescence reporter (AID 435029)
Scale: negative log10 of molar concentration, which is what pIC50 denotes.

Field pIC50 (system: UniProt:Q6QLK5) for entry `O=C1NC(=S)N(c2ccc(F)cc2)C(=O)C1=Cc1ccoc1` = 4.95

Field pIC50 (system: UniProt:Q6QLK5) for entry CCC(Sc1nc2ccsc2c(=O)n1Cc1ccc(C(=O)O)cc1)C(=O)Nc1ccc(C)c(Cl)c1 (stereo not drawn) = 4.88

Field pIC50 (system: UniProt:Q6QLK5) for entry `O=C(O)c1cc(N=NCc2ccc(-c3ccccc3)cc2)ccc1Cl` = 5.00
